Where do the numbers come from? From PubChem BioAssay AID2060886.

- System: 653999-131-R-J2-PDC complex spheroids, growth inhibition;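 note: spheroids exposed to the agents for seven days before the readout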
- experiment_description: Anticancer human tumor 653999-131-R-J2-PDC patient-derived lung adenocarcinoma cell line growth inhibition [RAS]
- run_conditions: second compound 0.00949 µM; first compound 0.316 µM; hits give low values
- Text: RAS pathway inhibitors in Combinations in Complex Spheroids A high-throughput screen of multi-cell type tumor spheroids was designed to identify active combinations of RAS pathway inhibitors and targeted small molecules. Complex spheroids include a stromal component modeled by human endothelial cells (HUVEC) and fibroblasts modeled by human mesenchymal stem cells (MSCs). […] Compounds. […] If the clinical Cmax for an agent had not been determined, the highest concentration tested was 10 microM. […]
The label Y is reserved for viability, T/C strictly under 40%; N covers values equal to or above it.

Study these solved cases before continuing.
molecule	cat
CC1(O)CCCC1n1c(=O)c(C(F)F)cc2cnc(NC3CCN(S(C)(=O)=O)CC3)nc21 (centres undefined) + CCn1c(-c2cccnc2C(C)OC)c2c3cc(ccc31)N1CCOC(CC(NC(=O)C(C(C)C)N(C)C(=O)C3(F)CCN(C(=O)C#CC(C)(C)N(C)C)CC3)C(=O)N3CCCC(N3)C(=O)OCC(C)(C)C2)C1	N
CC(Nc1ccc2c(c1)OCCn1cc(N3C(=O)OCC3C(F)F)nc1-2)C(N)=O (centres undefined) + CCn1c(-c2cccnc2C(C)OC)c2c3cc(ccc31)N1CCOC(CC(NC(=O)C(C(C)C)N(C)C(=O)C3(F)CCN(C(=O)C#CC(C)(C)N(C)C)CC3)C(=O)N3CCCC(N3)C(=O)OCC(C)(C)C2)C1	N
CC(=O)OC12COC1CC(O)C1(C)C(=O)C(O)C3=C(C)C(OC(=O)C(O)C(NC(=O)OC(C)(C)C)c4ccccc4)CC(O)(C(OC(=O)c4ccccc4)C21)C3(C)C (centres undefined) + CCn1c(-c2cc(N3CCN(C)CC3)cnc2C(C)OC)c2c3cc(ccc31)-c1csc(n1)CC(NC(=O)C1CC1C)C(=O)N1CCCC(N1)C(=O)OCC(C)(C)C2	Y
O=C(c1ccc(F)c(F)c1Nc1ccc(I)cc1F)N1CC(O)([C@@H]2CCCCN2)C1 + CCn1c(-c2cc(N3CCN(C)CC3)cnc2C(C)OC)c2c3cc(ccc31)-c1csc(n1)CC(NC(=O)C1CC1C)C(=O)N1CCCC(N1)C(=O)OCC(C)(C)C2	Y
C[C@@H](NC(=O)c1ncnc(N)c1Cl)c1ncc(C(=O)Nc2cc(C(F)(F)F)c(Cl)cn2)s1 + CCn1c(-c2cccnc2C(C)OC)c2c3cc(ccc31)N1CCOC(CC(NC(=O)C(C(C)C)N(C)C(=O)C3(F)CCN(C(=O)C#CC(C)(C)N(C)C)CC3)C(=O)N3CCCC(N3)C(=O)OCC(C)(C)C2)C1	N
CCN1CCN(Cc2ccc(Nc3ncc(F)c(-c4cc(F)c5nc(C)n(C(C)C)c5c4)n3)nc2)CC1 + CCn1c(-c2cccnc2C(C)OC)c2c3cc(ccc31)N1CCOC(CC(NC(=O)C(C(C)C)N(C)C(=O)C3(F)CCN(C(=O)C#CC(C)(C)N(C)C)CC3)C(=O)N3CCCC(N3)C(=O)OCC(C)(C)C2)C1	N
Nc1ccn(C2OC(CO)C(O)C2(F)F)c(=O)n1 (centres undefined) + CCn1c(-c2cccnc2C(C)OC)c2c3cc(ccc31)N1CCOC(CC(NC(=O)C(C(C)C)N(C)C(=O)C3(F)CCN(C(=O)C#CC(C)(C)N(C)C)CC3)C(=O)N3CCCC(N3)C(=O)OCC(C)(C)C2)C1	Y
O=C(c1ccc(F)c(F)c1Nc1ccc(I)cc1F)N1CC(O)([C@@H]2CCCCN2)C1 + CCn1c(-c2cccnc2C(C)OC)c2c3cc(ccc31)N1CCOC(CC(NC(=O)C(C(C)C)N(C)C(=O)C3(F)CCN(C(=O)C#CC(C)(C)N(C)C)CC3)C(=O)N3CCCC(N3)C(=O)OCC(C)(C)C2)C1	Y

Prompt: Here's an entry: Nc1ccn(C2OC(CO)C(O)C2(F)F)c(=O)n1 (centres undefined) + CCn1c(-c2cc(N3CCN(C)CC3)cnc2C(C)OC)c2c3cc(ccc31)-c1csc(n1)CC(NC(=O)C1CC1C)C(=O)N1CCCC(N1)C(=O)OCC(C)(C)C2 . Is its viability, T/C below 40%?
Completion: Y

Prompt: Entry C=CC(=O)N1CCN(c2nc(OCC3CCCN3C)nc3c(F)c(-c4nc(N)cc(C)c4C(F)(F)F)c(Cl)cc23)C(C)C1 (centres undefined) + CCn1c(-c2cccnc2C(C)OC)c2c3cc(ccc31)N1CCOC(CC(NC(=O)C(C(C)C)N(C)C(=O)C3(F)CCN(C(=O)C#CC(C)(C)N(C)C)CC3)C(=O)N3CCCC(N3)C(=O)OCC(C)(C)C2)C1 please
Completion: N

Prompt: Entry CC(Nc1ccc2c(c1)OCCn1cc(N3C(=O)OCC3C(F)F)nc1-2)C(N)=O (centres undefined) + CCn1c(-c2cc(N3CCN(C)CC3)cnc2C(C)OC)c2c3cc(ccc31)-c1csc(n1)CC(NC(=O)C1CC1C)C(=O)N1CCCC(N1)C(=O)OCC(C)(C)C2 please
Completion: Y

Prompt: Entry C=CC(=O)Nc1cc(Nc2nccc(-c3cn(C)c4ccccc34)n2)c(OC)cc1N(C)CCN(C)C + CCn1c(-c2cccnc2C(C)OC)c2c3cc(ccc31)N1CCOC(CC(NC(=O)C(C(C)C)N(C)C(=O)C3(F)CCN(C(=O)C#CC(C)(C)N(C)C)CC3)C(=O)N3CCCC(N3)C(=O)OCC(C)(C)C2)C1 please
Completion: N

Prompt: Entry CC(=O)OC12COC1CC(O)C1(C)C(=O)C(O)C3=C(C)C(OC(=O)C(O)C(NC(=O)OC(C)(C)C)c4ccccc4)CC(O)(C(OC(=O)c4ccccc4)C21)C3(C)C (centres undefined) + CCn1c(-c2cccnc2C(C)OC)c2c3cc(ccc31)N1CCOC(CC(NC(=O)C(C(C)C)N(C)C(=O)C3(F)CCN(C(=O)C#CC(C)(C)N(C)C)CC3)C(=O)N3CCCC(N3)C(=O)OCC(C)(C)C2)C1 please
Completion: N
